- Test system: Vero
- TEST SUMMARY: Cytotoxicity against African green monkey Vero cells at 98 ug/mL by neutral red dye uptake assay relative to control
- Type: cell-based
- CONDITION: chlorocebus sabaeus
Reported Cell viability by item:
Number in %, nothing else.

Here are 2 molecules together with their reported answers.
O=C1CSC(c2ccccc2Cl)N1CCN1CCCCC1 (stereo unspecified)    94
O=C1CSC(c2ccccc2[N+](=O)[O-])N1CCN1CCCCC1 (stereo unspecified)    100

Let me check: COc1ccccc1C1SCC(=O)N1CCN1CCCCC1 (stereo unspecified) , system Vero, measured Cell viability is 100

GET /values?item= O=C1CSC(c2ccccc2F)N1CCN1CCCCC1 (stereo unspecified) &system= Vero returns Cell viability: 82

Cell viability of O=C1CSC(c2c(Cl)cccc2Cl)N1CCN1CCCCC1 (stereo unspecified) , assay on Vero, is 76

Reported Cell viability (Vero) for entry O=C1CSC(c2cccc(F)c2)N1CCN1CCCCC1 (stereo unspecified) is 92
